Where these numbers come from: patent US10933051B2

Tested on: A. baumannii FSAb-065
Assay: Antimicrobial Susceptibility Test (CLSI), Test Example 2
Format: cell-based
Set-up: unit not given here
Details: Table 4; strain produces OXA-2, VIM-2
Experimental: Antimicrobial Susceptibility Test was performed by the CLSI (Clinical and Laboratory Standards Institute) methods. The agar dilution method for determining antimicrobial susceptibility was carried out using Mueller Hinton-II agar and the amount of inoculation was 10^4CFU/spot. Broth dilution tests were performed using the Mueller Hinton-II broth. All assays were run with the indicated control strains, available from the ATCC (American Type Culture Collection, Rockville, Md.).
I'd appreciate it if you could supply antimicrobial susceptibility, A. baumannii FSAb-065 values for the items below.
One number for each entry.

State the recorded antimicrobial susceptibility, A. baumannii FSAb-065 for every item in the following list.
1. C[C@@H](O)[C@H]1C(=O)N2C(C(=O)O)=C(CN3CC[C@H](NC(=O)c4ccc(OCc5ccccc5)c(OCc5ccccc5)c4Cl)C3)[C@H](C)[C@H]12 [Compound 28]
2. C[C@@H](O)[C@H]1C(=O)N2C(C(=O)O)=C(CN(C)CCNC(=O)c3cc(O)c(O)cc3Cl)[C@H](C)[C@H]12 [Compound 5]
3. C[C@@H](O)[C@H]1C(=O)N2C(C(=O)O)=C(CN(C)CCNC(=O)c3ccc(O)c(O)c3C(F)(F)F)[C@H](C)[C@H]12 [Compound 3]
4. C[C@@H](O)[C@H]1C(=O)N2C(C(=O)O)=C(CN3CCCC3CNC(=O)c3ccc(O)c(O)c3Cl)[C@H](C)[C@H]12 (stereo partly drawn) [Compound 34]
5. C[C@@H](O)[C@H]1C(=O)N2C(C(=O)O)=C(CN(C)CCNC(=O)c3ccc(O)c(O)c3Cl)[C@H](C)[C@H]12 [Compound 1]

1: 0.5; 2: 8; 3: 2; 4: 8; 5: 1

* * *

Tested on: A. baumannii KABA 01-33
Assay: MIC by CLSI agar/broth dilution, Test Example 1
Type: cell-based
Set-up: unit not given here
Details: Table 2; strain produces OXA-2, VIM-2
Description: The MIC (minimum inhibitory concentration) was determined by the CLSI (Clinical and Laboratory Standards Institute) methods. The agar dilution method for determining antimicrobial susceptibility was carried out using Mueller Hinton-II agar and the amount of inoculation was 10^4 CFU/spot. Broth dilution tests were performed using Mueller Hinton-II broth. All assays were run with the indicated control strains, available from the ATCC (American Type Culture Collection, Rockville, Md.).
I'd be grateful if you could share measured MIC (minimum inhibitory concentration), A. baumannii KABA 01-33 for these entries.
Numbers only.

compound: C[C@@H](O)[C@H]1C(=O)N2C(C(=O)O)=C(CN(C)CC(=O)NCc3cc(=O)c(O)cn3O)[C@H](C)[C@H]12 [Compound 26]
recorded result: 2

compound: C[C@@H](O)[C@H]1C(=O)N2C(C(=O)O)=C(CN(C)CCNC(=O)c3cc(O)c(O)cc3Cl)[C@H](C)[C@H]12 [Compound 5]
recorded result: 2

compound: C[C@@H](O)[C@H]1C(=O)N2C(C(=O)O)=C(CN(C)CCNC(=O)c3ccc(O)c(O)c3)[C@H](C)[C@H]12 [Compound 8]
recorded result: 4

compound: C[C@@H](O)[C@H]1C(=O)N2C(C(=O)O)=C(CN(C)CCNC(=O)CCc3ccc(O)c(O)c3Cl)[C@H](C)[C@H]12 [Compound 23]
recorded result: 16

We next turn to a different compound, shown below.
What measured MIC (minimum inhibitory concentration), A. baumannii KABA 01-33 goes with C[C@@H](O)[C@H]1C(=O)N2C(C(=O)O)=C(CN(C)CCNC(=O)c3ccc(O)c(O)c3Cl)[C@H](C)[C@H]12 [Compound 1] ? 1

* * *

Tested on: P. aeruginosa FSPa-102
Assay: Antimicrobial Susceptibility Test (CLSI), Test Example 3
Format: cell-based
Design: unit not given here
Conditions: Table 6; strain produces IMP-1
quantity kind: antimicrobial susceptibility, Pa FSPa-102

record smiles: COc1ccc(C(=O)NCCCN(CCCNC(=O)c2ccc(OC)c(OC)c2F)CC2=C(C(=O)O)N3C(=O)[C@H]([C@@H](C)O)[C@H]3[C@H]2C)c(F)c1OC
recorded result: >32

record smiles: C[C@@H](O)[C@H]1C(=O)N2C(C(=O)O)=C(CN(CCCCNC(=O)c3cccc(O)c3O)CCCNC(=O)c3cccc(O)c3O)[C@H](C)[C@H]12
recorded result: >32

Then there is this compound:
Reported antimicrobial susceptibility, Pa FSPa-102 for "COc1ccc(C(=O)NCCCN(CCCNC(=O)c2ccc(O)c(O)c2F)CC2=C(C(=O)O)N3C(=O)[C@H]([C@@H](C)O)[C@H]3[C@H]2C)c(F)c1OC" : what is it? >32
